reported endpoint: melting point

COc1cc(F)c(C(=O)Cc2c(Cl)cncc2Cl)cc1OC1CCCC1 : 116 °C
CSc1[nH]n(C2CCCC2)c2nc(-c3ccncc3)nc(=O)c1-2 : 272 to 274 °C
C=CCc1c(O)cc(OC)cc1C(=O)O : 120 to 122 °C
CC(C)C(=O)Nc1c(N)cc(Br)cc1OCc1ccccc1 : 214 to 215 °C
CN(C(=O)c1ccccn1)c1cc(F)cc(F)c1 : 102 to 104 °C
CCCN(CCC)CCCC1CCN(CCNC(=O)N2c3cc(C)ccc3C(=O)Nc3cccnc32)CC1 : 195 °C
O=C(Nc1cccc2c1C(=O)c1c-2n[nH]c1-c1ccc(C(=O)NC2CCNCC2)s1)NN1CCOCC1 : 224 to 226 °C
O=C1c2ccccc2C(c2ccc(Cl)cc2)(c2c(O)cc(O)cc2O)N1Cc1ccc([N+](=O)[O-])cc1 (centres undefined) : 196 to 198 °C
CC(=O)OC1CSC(Oc2ccc(-c3ccccn3)cc2)C(OC(C)=O)C1OC(C)=O (centres undefined) : 125 to 130 °C

----------
reported endpoint: melting point

COc1ccc(C2(c3ccc(N(C)C)cc3)OC(=O)c3cc(N(C)C)ccc32)c(OC)c1 (stereo not given) : 192 to 194 °C
COc1ccc2[nH]c(S(=O)Cc3ncnc(N4CCCCC4)c3C)nc2c1 (stereo not given) : 87 to 89 °C
CCOC(=O)c1cnc2ccc(C#N)cc2c1O : > 265 °C
Fc1ccccc1-n1c(CN2CCOCC2)nnc1-c1ccc(-c2ccccc2)cc1 : 129 to 131 °C
CC(C)(C)ONC(=O)C(C)(C)CCOc1ccc(C2=NNC(=O)CC2)cc1Cl : 133 to 135 °C

----------
reported endpoint: melting point

CC(=O)OC1CCC2C3CCC4=C([N+](=O)[O-])C(=O)CCC4(C)C3CCC12C (stereo not given) : 216 to 217 °C
O=c1[nH]c(=S)[nH]cc1Oc1cccnc1 : 227 to 230 °C
CC(=O)C1=CCC2C3CCC4CC=CCC4(C)C3CCC12C (stereo not given) : 143 to 145 °C
Nc1ccc(Oc2ccc(Oc3ccc(N)c(O)c3)cc2)cc1O : > 220 °C
CCOC(=O)c1c(N)[nH]c2cccc(Cl)c12 : 140 to 142 °C
CC(C)(C)OC(=O)N(CCOc1cccc2[nH]ccc12)Cc1ccccc1 : 46 to 48 °C
CS(=O)(=O)c1ccc(-n2cc(C(F)(F)F)nc2-c2ccc(-c3cscn3)cc2)cc1F : 112 to 115 °C
COc1ccc(Cn2c(=O)[nH]c3ccc([N+](=O)[O-])cc3c2=O)cc1 : 254 to 256 °C
CC(=O)c1c(C)[nH]c(CCN)c1C : 106 to 108 °C
O=C(O)CCCCCOc1nc(-c2ccccc2)c2ccccc2n1 : 112 to 114 °C

----------
Form field: melting point (one value per entry).
reported endpoint: melting point

COc1cc(N2CCC(N3CCCN(C)CC3)CC2)ccc1Nc1ncc2ccc(-c3ccccc3N(C)S(C)(=O)=O)n2n1 : 100 to 109 °C
CN(C)c1ccc(-c2nnc(N(C)C)nc2-c2ccc(N(C)C)cc2)cc1 : 170 to 172 °C
CC(Cc1ccccc1)(C(=NC#N)NCCc1ccccc1)c1ccccn1 (centres undefined) : 162 to 164 °C
CCCCc1nc2c(n1Cc1ccc(-c3ccccc3S(N)(=O)=O)cc1)C(=NO)CCS2 : > 200 °C
CC(C)NC(=O)Cn1c(-c2ccc(Cl)cc2)nc2cccnc21 : 248 to 249 °C
COCCCn1c(CO)c(Cl)c2c3c(c(-c4ccccc4Cl)cc21)C(=O)NC3=O : 214 to 215 °C
CN(C)c1ccc(NC(=O)CCn2c(-c3ccc(Cl)cc3)nc3cccnc32)cc1 : 216 to 218 °C
COc1ccc(Br)c(C(=NNS(=O)(=O)c2ccccc2)N2CCN(C)CC2)c1 : 141 to 145 °C
CCOC(=O)c1c(C)cc(NC(C)=O)c(C(=O)O)c1C : 170 to 171 °C

----------
reported endpoint: melting point

O=C(NO)c1cnc(N(CCO)Cc2cc3nc(-c4cccc5[nH]ncc45)nc(N4CCOCC4)c3s2)nc1 : 190 to 194 °C
COc1ccc([C@@H]2c3ccccc3C[C@@H]3CC(=O)N(C)CCN32)cc1 (racemic) : 170 to 172 °C
N#Cc1ccc(Nc2nc(Oc3c(Br)cc(CO)cc3Br)ccc2[N+](=O)[O-])cc1 : 209 to 213 °C
CCCc1c(OCC(O)COc2ccc(CC(=O)O)cc2Br)ccc(C(C)=O)c1O (centres undefined) : 84 °C
CCCC(=O)OCC(=O)C12OCOC1CC1C3CCC4=CC(=O)C=CC4(C)C3C(O)CC12C (centres undefined) : 140 to 141 °C
Nc1ncn(C[C@@H](CO)OCP(=O)(O)O)c(=O)n1 : 175 to 178 °C
COc1ccc(NC(=O)c2cc([N+](=O)[O-])ccc2NC(=O)c2ccc(C(C)(C)C)cc2)cc1 : 210 to 211 °C
CC12CC(=O)C3C(CCC4CC(O)CCC43C)C1CCC2C(=O)CBr (centres undefined) : 160 to 163 °C
CCOC(=O)c1ccc(-c2coc(-c3ccccc3)n2)cc1 : 110 to 112 °C

----------
# melting point listing for each entry below
reported endpoint: melting point

COc1ccccc1NC(=O)Nc1nc(Nc2ccccc2-c2ccccc2)nc(N(CC(=O)O)Cc2ccc(OC)c(OC)c2)n1 : 115 to 120 °C
Fc1nc(F)c(F)c(N2CCCNCC2)c1F : 58 to 61 °C
c1ccc(OCc2ccc(OCc3ccc4ccccc4n3)cc2)cc1 : 100 to 111 °C
O=C(O)CNC(=O)c1ccc(C(=O)NS(=O)(=O)c2ccccc2)cn1 : 190 to 191 °C
O=C1NC(=O)C(Cc2ccc(OCCON=Cc3ccc4ccccc4n3)cc2)S1 (stereo not given) : 164 to 166 °C
COc1nc2cc(Cl)c(Cl)c(N(CC(=O)O)S(C)(=O)=O)c2nc1OC : 203 to 206 °C
NS(=O)(=O)c1cc(C(=O)O)cc([N+](=O)[O-])c1NCCc1ccccc1 : 208 °C
Cc1ccccc1OCC(O)CNC(C)(C)COc1ccc(C(N)=O)cn1 (stereo not given) : 122 to 128 °C
CCNc1nc(Nc2ccccc2)ncc1CO : 174 to 176 °C
Cc1coc2c1C(C)(O)C1=C(CCCC1C)C2=O (stereo not given) : 139 to 141 °C

----------
reported endpoint: melting point

Cc1ccc(S(=O)(=O)N2N=C(c3ccccc3)CC3CCCC32)cc1 (stereo unspecified) : 171 to 176 °C
CC(=O)n1c(=O)n(-c2ccc(Cl)cc2)c(=O)n1C(C)=O : 148 to 150 °C
CSC(=NC(=O)c1ccccc1)Nc1c(Cl)cccc1Cl : 127 to 129 °C
OCCOc1nc2ncnc(NCc3ccco3)c2[nH]1 : 182 to 184 °C
COc1ccc(CC(=O)N(Cc2ccc(C)cc2)C2CCN(CC3CCCCC3)CC2)cc1 : 133 to 135 °C
CCOC(=O)c1cn2c(n1)SCCC2 : 99 to 100 °C

----------
reported endpoint: melting point

COc1cc(-c2ccsc2)cc2oc(=O)c(C)c(C)c12 : 158 to 160 °C
O=C1CCNC(=O)C1C(=O)c1ccccc1 (stereo not given) : 164 to 165 °C
C[C@]1(COc2ccc(N3CCC(OCC=Cc4ccc(OC(F)(F)F)cc4)CC3)cc2)Cn2cc([N+](=O)[O-])nc2O1 : 214 to 217 °C
CC(C)c1ccc(S(=O)(=O)n2c(CO)cc3cc(C(F)(F)F)ccc32)cc1 : 112 °C
Cc1oc(-c2ccccc2)nc1CCOc1ccc(CCCC2OC(=O)NC2=O)cn1 (stereo not given) : 169 to 171 °C
CCOC(=O)COc1ccc(OCc2ccccc2)cc1OCc1ccccc1 : 62 to 64 °C
COc1cc2c(c(Cl)c1Cl)C(=O)C(C)(C1CCCC1)C2 (stereo not given) : 109 to 112 °C
CC(C)n1ccc(-c2ccc([C@H](C)N3CC[C@](CC(C)(C)O)(c4ccccc4)OC3=O)cc2)cc1=O : 134 to 139 °C
NC(=S)Nc1cc(Cl)ccc1N1CCOCC1 : 174 to 175 °C
Cc1nn(C)c2[nH]c(=O)c3c(c12)CCCC3 : > 300 °C

----------
The entries below are paired with their reported melting point.
reported endpoint: melting point

CCCCc1oc2ccc(C(=O)OC(C)C)cc2c1C(=O)c1ccc(OS(=O)(=O)C(F)(F)F)cc1 : 100 to 101 °C
CC(=O)c1c(-c2ccc(Cl)cc2)c(-c2ccc(Cl)cc2)nn(CCC2OC(CO)C(O)C(O)C2O)c1=O (stereo not given) : 96 to 122 °C
CC(C)Nc1cccnc1N1CCN(C(=O)c2ccc(C(=O)NCCN(C)C)cc2)CC1 : 133 °C
O=c1nc(-c2ccccn2)sc2ccc(OCCCO)cc12 : 197 to 198 °C
O=C(Nc1nc2ccccc2s1)Nc1cccc2c1C1CCCCN1C2=O (stereo not given) : 260 °C
O=Cc1cc(Br)ccc1C(=O)O : 202 °C
COC(=O)C(CCCCNC(=O)c1ccc(N)cc1)n1c2ccccc2c2ccccc21 (stereo not given) : 90 to 91 °C
CC(C)(C)OC(=O)NC12CC3CC(CC(O)(C3)C1)C2 : 131 to 132 °C
Nc1cc(NS(=O)(=O)CCl)ccc1F : 128 to 129 °C
CC(=NNC(=N)N)c1sc(-c2ccccc2)nc1C : 195 to 196 °C
